tested on: KG-1; assay: cell viability (% survival relative to DMSO control, bortezomib = 0%); higher = less cytotoxic; details: 1 nM; 72 h
Exercise: state measured cell viability for each of the compounds provided.
Answers are plain numbers, in %.

For the 4 compounds below, give their cell viability values.
1. CC12CCC(O)CC1CCC1C2CCC2(C)C(C3=CC(=O)OC3)CCC12O (stereo not drawn)
2. [N-]=[N+]=CC(=O)CC[C@H](N)C(=O)O
3. CC(Cc1ccc(O)c(O)c1)C(C)Cc1ccc(O)c(O)c1 (stereo not drawn)
4. C[C@]12O[C@H](C[C@]1(O)CO)n1c3ccccc3c3c4c(c5c6ccccc6n2c5c31)CNC4=O

1. 128
2. 110
3. 99
4. 98.3

For the 4 compounds below, give their cell viability values.
1. NC(=O)c1ncn([C@@H]2O[C@H](CO)[C@@H](O)[C@H]2O)n1
2. O=C1Nc2ccccc2/C1=C\NCCc1ccc(O)c(O)c1
3. Cc1c(-c2ccccc2)oc2c(C(=O)OCCN3CCCCC3)cccc2c1=O.Cl [Flavoxate]
4. COc1c(C)c2c(c(O)c1C/C=C(\C)CCC(=O)O)C(=O)OC2

[98.9, 112, 94.7, 101]
